target: human TLR8 (Homo sapiens (Human), UniProt Q9NR97)
Sequence (Q9NR97 27-1041): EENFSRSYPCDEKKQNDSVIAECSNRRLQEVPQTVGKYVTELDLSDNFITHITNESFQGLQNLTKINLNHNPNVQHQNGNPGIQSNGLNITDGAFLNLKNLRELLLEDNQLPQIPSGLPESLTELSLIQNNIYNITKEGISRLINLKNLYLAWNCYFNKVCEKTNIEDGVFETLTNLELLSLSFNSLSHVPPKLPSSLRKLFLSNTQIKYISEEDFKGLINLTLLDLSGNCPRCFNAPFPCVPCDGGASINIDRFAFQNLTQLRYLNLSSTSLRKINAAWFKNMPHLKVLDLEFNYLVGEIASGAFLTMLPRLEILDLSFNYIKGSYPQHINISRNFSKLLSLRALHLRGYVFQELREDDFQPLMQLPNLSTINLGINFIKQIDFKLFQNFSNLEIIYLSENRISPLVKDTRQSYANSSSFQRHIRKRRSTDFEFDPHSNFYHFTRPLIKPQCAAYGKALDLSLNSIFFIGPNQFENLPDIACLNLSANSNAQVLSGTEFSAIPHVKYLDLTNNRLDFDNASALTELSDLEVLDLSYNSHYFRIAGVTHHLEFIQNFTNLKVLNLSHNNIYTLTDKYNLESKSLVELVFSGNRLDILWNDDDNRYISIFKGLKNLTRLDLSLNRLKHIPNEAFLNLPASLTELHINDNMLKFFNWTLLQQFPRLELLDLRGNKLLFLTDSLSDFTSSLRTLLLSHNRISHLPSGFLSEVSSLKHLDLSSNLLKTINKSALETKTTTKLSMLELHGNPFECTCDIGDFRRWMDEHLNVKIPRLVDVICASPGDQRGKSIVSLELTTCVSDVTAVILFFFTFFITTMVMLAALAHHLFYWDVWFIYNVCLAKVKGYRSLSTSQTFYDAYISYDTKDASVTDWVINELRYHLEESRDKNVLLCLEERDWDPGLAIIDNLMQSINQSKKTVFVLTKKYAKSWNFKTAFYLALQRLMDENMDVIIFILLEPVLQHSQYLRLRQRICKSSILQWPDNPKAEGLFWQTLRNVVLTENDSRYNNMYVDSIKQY
assay-protocol: TLR8 inhibition reporter assay (HEK-Blue, SEAP)
condition-parameters: HEK-Blue cells overexpressing human TLR8, R848 15.9 μM stimulation
readout-name: IC50 (nM)

Take a look at these entries with their results.
| smiles-notation | target | readout-name | unit-abbrev | reading |
| --- | --- | --- | --- | --- |
| COc1ccc(-c2[nH]c3ccc(-c4ccc(N5CCCN(CCO)CC5)cc4)cc3c2C(C)C)cc1OC | human TLR8 (Homo sapiens (Human), UniProt Q9NR97) | IC50 | nM | 71 |
| CCc1c(-c2ccc(OC)c(OC)c2)[nH]c2ccc(-c3noc(C4CCNCC4)n3)cc12 | human TLR8 (Homo sapiens (Human), UniProt Q9NR97) | IC50 | nM | 19 |
| Cc1cc(-c2[nH]c3ccc(-c4cnc(NC(=O)CN(C)C)cn4)cc3c2C(C)C)ccn1 | human TLR8 (Homo sapiens (Human), UniProt Q9NR97) | IC50 | nM | 1.6 |
| CC(C)c1c(-c2ccnc(N)c2)[nH]c2ccc(-c3nc(C(=O)NC4CCN(C(C)C)CC4)co3)cc12 | human TLR8 (Homo sapiens (Human), UniProt Q9NR97) | IC50 | nM | 23 |

I: COCCN(C)Cc1nnc(-c2ccc3[nH]c(-c4ccc(OC)c(OC)c4)c(C(C)C)c3c2)o1
II: COc1ccc(-c2[nH]c3ccc(-c4cccc(C(=O)N[C@H]5CC[C@H](N)CC5)c4)cc3c2C(C)C)cc1OC
Sorting ascending by IC50, which comes first: I or II ? // return label of chosen record II
(II: 42 nM, I: 166 nM)

This collection of values is drawn from patent US11420958B2.
